Experiment: small-molecule microarray binders of probe aXIP, primary screen, biochemical, NeuroSMM set, 635/667 nm fluorescence (AID 1119);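 note: probe is the protein aXip251-270 applied at 1 µg/mL to compound-printed slides; binding of probe to printed compounds measured as 667 nm fluorescence plus signal to noise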
Conditions: higher = more signal, called active from +8 up or from −8 down
The source made the active and inactive calls.
Record form. Attribute: composite Z-score. Fill in for each entry.

compound: CC(C)c1ccc(NN2C(C(O)c3ccc4c(c3)OCO4)C=CC3C(=O)N(c4ccccc4)C(=O)C32)cc1 (stereo not drawn)
composite Z-score: 0.491 (inactive)
--
compound: CC(CCC(=O)OC[C@H]1O[C@H](C#Cc2ccccc2)C=C[C@@H]1Oc1ccc(C)cc1)=NOC[C@@H](O)[C@H]1O[C@@H]2OC(C)(C)O[C@@H]2[C@H]1O
composite Z-score: -0.404 (inactive)

Parameter requested: composite Z-score. Apply to each item below.
1. CC(CCN1CCCCc2nc(C)c(C)cc21)=NOC(C)CN1CCCCc2nc(C)c(C)cc21 (stereo not drawn)
2. C=C(/C(=C/C[C@@H](OC(=O)c1ccncc1)c1ccc(OCCO)cc1)c1cnc2ccccc2c1)C(C)C
3. CCN1C(=O)[C@H]2[C@H]3[C@H](O)[C@H](O)CC(=NOCc4ccccc4)[C@H]3CC[C@H]2C1=O
4. Cc1ccc(S[C@]2(C(=O)NCC(F)(F)F)CC(=O)N(Cc3ccccc3Cl)[C@@H]2c2ccc(CO)cc2I)cc1
5. CCCC[C@@H]1C[C@H]1[C@@H](NS(=O)(=O)c1cccc2cccnc12)c1ccc(-c2ccccc2)cc1
6. COC(=O)[C@H]1COC(c2ccc(OCCCO)cc2)=N1

1: 0.833 (inactive); 2: -0.128 (inactive); 3: 0.0894 (inactive); 4: 0.0162 (inactive); 5: -0.325 (inactive); 6: 0.0182 (inactive)
